molecular target: CCL14_HUMAN; assay: BLI
recorded_metric: pKd
In plain terms, pKd is the concentration in mol/L turned into minus its base-10 logarithm.

{"binder": "P983_AMBPA (other) EDTGTEDDFDYGNTGCPFPVLGNYKSNMTKPVGCKNKCGSGYEVLNDTTPCYVIDQKVFNNMVPLRQYSKCPLGFCENGECKPNDQAEDCYKGREEQK", "pKd": 7.09}
{"binder": "P974_AMBCA (other) ENTQQEEQDYDYGTDTCPFPVLANKTNKAKFVGCHQKCNGGDQKLTDGTACYVVERKVWDRMTPMLWYECPLGECKNGVCEDLRKKEDCRKGNGEEK", "pKd": 7.31}
{"binder": "P546_AMBCA (other) ENTQQEEEDYDYGTDTCPFPVLANKTNKAKFVGCHQKCNGGDQKLTDGTACYVVERKVWDRMTPMLWYSCPLGECKNGVCEDLRKKEECRKGNGEEK", "pKd": 7.55}

q: Specify reported pKd for the binder shown: P467_RHIPU (other) AEKSLDSDSSGEDYELWTQGCPFLVAENRTGFGTTVSCQHNCNGAIEKVPEGEPCYTIGEDGLGRMKLNLPYNCSLGECSGGVCVPNGRSDVCFKRTWEENNKAMA
a: 8.38
